Organism: Rattus norvegicus
Experiment: Open TG-GATES - Regimen: Single
Format: toxicity, organism-based, Sprague-Dawley
Parameters: regimen Single, gender Male, age 6 weeks
Details: in vivo, po, 0 mg/kg, 6 h, tissue Plasma, route gavage, dose level Control
value.type: TC (mg/dL)
Write the answer as a number in mg/dL, unit excluded.

Example entries begin here.
OCCN1CCN(CCCN2c3ccccc3Sc3ccc(C(F)(F)F)cc32)CC1 [FLUPHENAZINE]    65.8
O=[N+]([O-])c1ccc(O)c([N+](=O)[O-])c1 [2,4-DINITROPHENOL]    79.8
Cn1cc[nH]c1=S [METHIMAZOLE]    79.4

Query CCOC(=O)C(C)(C)Oc1ccc(Cl)cc1 [CLOFIBRATE] yields TC of 76.2

TC recorded for this compound, Cc1ccc2cc3c(ccc4ccccc43)c3c2c1CC3 [3-METHYLCHOLANTHRENE] , is 80.2

Noted for Cc1cccc(C)c1OCC(C)N (stereo unspecified) [MEXILETINE] : its TC reads 72

====

Organism: Rattus norvegicus
Assay: Open TG-GATES - Regimen: Single
Type: toxicity, organism-based, Sprague-Dawley
Design: regimen Single, gender Male, age 6 weeks
Settings: in vivo, po, 0 mg/kg, 3 h, tissue Plasma, route gavage, dose level Control
Measured AST, listed per entry.
Numbers only; they are read as IU/L.

Consider the following illustrative entries.
O=[N+]([O-])c1ccc(O)c([N+](=O)[O-])c1 [2,4-DINITROPHENOL]    69.4
OCCN1CCN(CCCN2c3ccccc3Sc3ccc(C(F)(F)F)cc32)CC1 [FLUPHENAZINE]    63.4
CCOC(=O)C(C)(C)Oc1ccc(Cl)cc1 [CLOFIBRATE]    75.6

Cc1cccc(C)c1OCC(C)N (stereo unspecified) [MEXILETINE] has a reported AST of 77.4

For reference, reported AST for Cn1cc[nH]c1=S [METHIMAZOLE] stands at 75.8

Lab book: AST of C=C(C)[C@H]1Cc2c(ccc3c2O[C@@H]2COc4cc(OC)c(OC)cc4[C@@H]2C3=O)O1 [ROTENONE] noted as 70.6

====

Species on record: Rattus norvegicus
Assay: Open TG-GATES - Regimen: Daily Repeat
Assay type: toxicity, organism-based, Sprague-Dawley
Set-up: regimen Daily Repeat, gender Male, age 6 weeks
Settings: in vivo, po, 0 mg/kg, 72 h, tissue Blood, route gavage, dose level Control, time 3 day
Reported values of MCH for individual entries
A number alone suffices; assume pg.

Please review the entries below; each comes with its answer.
O=[N+]([O-])c1ccc(O)c([N+](=O)[O-])c1    21.4
Cn1cc[nH]c1=S    22.7
OCCN1CCN(CCCN2c3ccccc3Sc3ccc(C(F)(F)F)cc32)CC1    21.5
C[C@H]1O[C@H](O[C@H]2[C@H](O)[C@@H](O)[C@@H](O[C@H]3[C@H](O)[C@@H](O)C(O)O[C@@H]3CO)O[C@@H]2CO)[C@H](O)[C@@H](O)[C@@H]1N[C@H]1C=C(CO)[C@@H](O)[C@H](O)[C@H]1O (some centres undefined)    21.7
C[C@H]1C(=O)O[C@@H]2CCN3CC=C(COC(=O)[C@](C)(O)[C@]1(C)O)[C@H]23    21.5
C=C(C)[C@H]1Cc2c(ccc3c2O[C@@H]2COc4cc(OC)c(OC)cc4[C@@H]2C3=O)O1    20.8
O=C1CN(/N=C/c2ccc([N+](=O)[O-])o2)C(=O)N1    22
CCOC(=O)C(C)(C)Oc1ccc(Cl)cc1 [CLOFIBRATE]    21.3

From here, focus on the item given below.
The recorded MCH for entry Cc1cccc(C)c1OCC(C)N (centres undefined) equals 19.9

Sourced from ChEMBL document CHEMBL3885861
